# EXPERIMENTAL SYSTEM: cynomolgus serum albumin (cynomolgus, UniProt A2V9Z4 25-608)
# Sequence (A2V9Z4 25-608 limits assumed): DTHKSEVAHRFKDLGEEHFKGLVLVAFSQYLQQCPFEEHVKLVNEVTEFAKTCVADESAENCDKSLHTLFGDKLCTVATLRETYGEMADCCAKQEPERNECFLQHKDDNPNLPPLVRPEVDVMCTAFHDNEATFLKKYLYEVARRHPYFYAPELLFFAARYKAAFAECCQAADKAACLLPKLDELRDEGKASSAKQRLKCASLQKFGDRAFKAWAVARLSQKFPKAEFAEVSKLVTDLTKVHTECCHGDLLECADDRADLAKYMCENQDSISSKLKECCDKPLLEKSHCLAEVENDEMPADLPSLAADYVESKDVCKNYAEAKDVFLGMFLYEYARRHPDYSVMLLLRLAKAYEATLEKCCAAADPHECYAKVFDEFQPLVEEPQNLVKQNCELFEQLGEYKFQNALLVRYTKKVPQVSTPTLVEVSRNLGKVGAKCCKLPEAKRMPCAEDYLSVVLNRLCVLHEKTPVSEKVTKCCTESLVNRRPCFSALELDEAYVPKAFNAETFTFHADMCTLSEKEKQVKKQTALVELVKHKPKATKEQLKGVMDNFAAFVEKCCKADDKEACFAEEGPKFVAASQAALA
# METHOD DESCRIPTION: Octet HTX (ForteBio), HCAb on AHC sensor, 1:1 fit
Measured pKd, listed per entry for reference.
Lab note: report pKd as minus log10 of the concentration in molar units, number only.

CNG-HSA-118 (VHH) VHH: KVQLVESGGGLVQPGNSLRLSCAASGFTFSSFGMSWVRQAPGKGLEWVSSISGGGSDTLYADSVRGRFTISRDNSKNTLYLQMNSLRAEDTAVYYCTIGGSLRASSQGTLVTVSS; 8.18
CNG-HSA-108 (VHH) VHH: KVQLVESGGGLVQPGGSLRLSCAASGFTFGSFGMSWVRQAPGKGLEWVSSISGSGADTLYADSVKGRFTISRDNSKNTLYLQMNSLRAEDTAVYYCTIGGSLRASSQGTLVTVSS; 8.28
CNG-HSA-104 (VHH) VHH: KVQLLESGGGLVQPGGSLRLSCAASGFTFHSFGMSWVRQAPGKGLEWVSSISGSGSDTLYADSVKGRFTISRDNSKNTLYLQMNSLRPEDTAVYYCTIGGSLSRSSQGTLVTVSS; 8.21

Now for another entry.
pKd in this record for CNG-HSA-109 (VHH) VHH: KVQLVESGGGLVQPGNSLRLSCAASGFTFGSFGMSWVRQAPGKGPEWVSSISGSGSDTLYADSVKGRFTISRDNSKNTLYLQMNSLRPEDTAVYYCTIGGSLSRSSQGTLVTVSS : 8.51
